Reported SARS-CoV-2 infection rate values follow for various compounds
Tested on: Vero E6 infected with SARS-CoV-2
Measurement protocol: SARS-CoV-2 infection rate relative to infected DMSO; higher = more infection, active = 60 or less
Measurement conditions: 24 h

{"Compound": "NS(=O)(=O)c1ccc(-n2nc(C(F)(F)F)cc2-c2ccc(Cl)cc2)cc1 (10 µM)", "SARS-CoV-2 infection rate": "106% (inactive)"}
{"Compound": "COc1ccc2[nH]c(-c3ccccc3)c(CCNC(C)=O)c2c1 [2-phenylmelatonin] (10 µM)", "SARS-CoV-2 infection rate": "107% (inactive)"}
{"Compound": "CCCN(CCc1cccs1)[C@H]1CCc2c(O)cccc2C1 [rotigotine] (10 µM)", "SARS-CoV-2 infection rate": "96.5% (inactive)"}
{"Compound": "CC[C@]1(O)C[C@H]2CN(CCc3c([nH]c4ccccc34)[C@@](C(=O)OC)(c3cc4c(cc3OC)N(C=O)[C@H]3[C@@](O)(C(=O)OC)[C@H](OC(C)=O)[C@]5(CC)C=CCN6CC[C@]43[C@@H]65)C2)C1 [Vincristine (sulfate)] (10 µM)", "SARS-CoV-2 infection rate": "101% (inactive)"}
{"Compound": "CN(Cc1ccccc1)C(=O)[C@H](Cc1ccc2ccccc2c1)NC(=O)[C@@H]1CCCN1C(=O)Nc1ccccc1[N+](=O)[O-] (10 µM)", "SARS-CoV-2 infection rate": "108% (inactive)"}
{"Compound": "CC(=O)[C@]1(N)Cc2c(O)c3c(c(O)c2[C@@H](O[C@H]2C[C@H](O)[C@H](O)CO2)C1)C(=O)c1ccccc1C3=O [amrubicin] (0.833333 µM)", "SARS-CoV-2 infection rate": "92.5% (inactive)"}
{"Compound": "CCCCCCCCCCCCCCCCOP(=O)([O-])OCC[N+](C)(C)C [miltefosine] (0.833333 µM)", "SARS-CoV-2 infection rate": "94.5% (inactive)"}
